# experiment notes: Stability in an aqueous solution (HPLC residual ratio)
# assay context: Britton-Robinson's buffer pH 7, 25° C., 24 hours
Decide using Peak area (mAU × sec) after 24 hours alone. Strictly below 5000 mAU × sec: 1.0. Equal to or above 5000 mAU × sec: 0.0.

Example cases with answers are listed next.
INSERT INTO measurements (compound, discrete_label) VALUES
  ('CCC(O)C(C)C1OC1CC(C)(O)/C=C/C=C(\C)C1OC(=O)CC(O)CCC(C)(O)C(OC(=O)N2CCCN(C)CC2)/C=C/C1C (stereo not drawn)', 0.0),
  ('CCC(O)C(C)C1OC1CC(C)(O)/C=C/C=C(\C)C1OC(=O)CC(O)CCC(C)(O)C(OC(=O)N2CCN(C)CC2)/C=C/C1C (stereo not drawn)', 0.0),
  ('CCC(O)C(C)C1OC1CC(C)(O)/C=C/C=C(\C)C1OC(=O)CC(O)CCC(C)(O)C(OC(=O)N2CCN(C(C)C)CC2)/C=C/C1C (stereo not drawn)', 1.0),
  ('CCC(OC)C(C)C1OC1CC(C)(O)/C=C/C=C(\C)C1OC(=O)CC(O)CCC(C)(O)C(OC(=O)N2CCN(C(C)C)CC2)/C=C/C1C (stereo not drawn)', 1.0),
  ('CCC(O)C(C)C1OC1CC(C)(O)/C=C/C=C(\C)C1OC(=O)CC(O)CCC(C)(O)C(OC(C)=O)/C=C/C1C (stereo not drawn) [Compound 11107D]', 1.0);

Challenge: Input CCC(OC)C(C)C1OC1CC(C)(O)/C=C/C=C(\C)C1OC(=O)CC(O)CCC(C)(O)C(OC(=O)N2CCN(C)CC2)/C=C/C1C (stereo not drawn) ; condition: Peak area (mAU × sec) after 24 hours strictly below 5000 mAU × sec. Does it hold?
Response given: 1.0
